# viability at 20 µM per entry
- PROTOCOL NOTES: Cytotoxicity against rat C6 cells assessed as viable cells at 20 uM by MTT assay
- Format: cell-based
- MEASUREMENT CONTEXT: read-out: Activity
EXPERIMENTAL ENDPOINT: viability at 20 µM (%)

{"columns": ["MOLECULE", "NUMBER"],
 "data": [
  ["COc1cc(-c2ccccc2O)cc(OC)c1O", 119],
  ["COc1ccc(-c2cc(OC)c(O)c(Oc3c(OC)cc([C@@H](O)[C@H](O)CO)cc3OC)c2)c(OC)c1", 115],
  ["COc1ccc2c(oc3c(OC)c(OC)c(O)cc32)c1O", 113],
  ["COc1ccccc1-c1cc(OC)c(O)c(OC)c1", 118],
  ["COc1cc(-c2ccccc2)cc(OC)c1O [AUCUPARIN]", 117],
  ["COc1cc(-c2ccccc2)cc(Oc2c(OC)cc([C@@H](O)[C@H](O)CO)cc2OC)c1O [BERBEKORIN A]", 119],
  ["COc1ccc(-c2cc(OC)c(O)c(OC)c2)c(OC)c1", 119],
  ["CCCCC/C=C/C(=O)CCc1ccc(O)c(OC)c1 [SHOGAOL]", 110]
]}
